- TEST PROTOCOL: Toxicity liver stage against HepG2, at 10uM
- Assay type: cell-based
- Parameters: test concentration 10 uM, cell line HepG2-A16-CD81EGFP
- CONDITIONS: human, HepG2-A16-CD81EGFP cells; read-out: INHIBITION
# cytotoxicity at 10 µM values compiled below
I only need the number, in %, no unit after it.

COCCNc1ccc(CC2CCCN(C3CCCC3)C2)nn1 (stereo unspecified); 3.07
Cc1ccc(CN2CCCn3nnc(COCCN(C)C)c3C2)s1; -114
Cc1ccsc1CNCc1c(C(C)C)nn(C)c1N1CCOCC1; 8.42
COC[C@@]12CCO[C@@H]1CCN(C(=O)Cc1ccccc1C)C2; 2.05
O=C(NCCc1nnc2n1CCC2)N1CCC2(CCCCC2)C1; 14.7

Shift focus to the following entry.
IN: Retrieve cytotoxicity at 10 µM measured for CCOCc1nc(-c2ccc(F)cc2Cl)n(C2CCN(C)CC2)n1 and print it.
OUT: 0.0453

====

- TEST PROTOCOL: Toxicity liver stage against HepG2, at 10uM
- Assay type: cell-based
- Parameters: test concentration 10 uM, cell line HepG2-A16-CD81EGFP
- CONDITIONS: human, HepG2-A16-CD81EGFP cells; read-out: INHIBITION
# cytotoxicity at 10 µM values compiled below
I only need the number, in %, no unit after it.

Recorded results for 5 compounds are shown here.
CCc1nc(CN2CC(C(=O)OC)O[C@H](C)C2)cs1 (stereo partly drawn); -10.9
Cc1cc(NC(=O)CN2CCCC2c2noc(C3CC3)n2)on1 (stereo not drawn); 3.46
Cc1cccc(-c2nnn3c2COC(CNS(=O)(=O)C2CC2)C3)c1 (stereo not drawn); -110
COc1cccc(CC(=O)N2CCc3ncnc(NC(C)C)c3CC2)c1; 6.56
Cc1cccc2[nH]c(C3CCN(C(=O)c4cccnn4)CC3)nc12; 11.2

IN: Retrieve cytotoxicity at 10 µM measured for N#CCCN(C(=O)CN1CCCC1c1cccs1)c1ccccc1F (stereo not drawn) and print it.
OUT: -9.1

IN: Retrieve cytotoxicity at 10 µM measured for O=C([C@@H]1Cc2[nH]cnc2CN1Cc1cc2ccccc2o1)N1CCCC1 and print it.
OUT: 2.23

IN: Retrieve cytotoxicity at 10 µM measured for CCCN(Cc1ccc(OC)nc1)Cc1ccccc1OC and print it.
OUT: -5.85

IN: Retrieve cytotoxicity at 10 µM measured for Nc1nccnc1C(=O)N1CCN(CCOc2ccccc2)CC1 and print it.
OUT: 12.8

IN: Retrieve cytotoxicity at 10 µM measured for CCN(Cc1ccc2c(c1)OCO2)C(=O)CCc1c(C)nc(C)[nH]c1=O and print it.
OUT: -4.61

IN: Retrieve cytotoxicity at 10 µM measured for Cc1ccoc1C(=O)N1CCCC2(CCCN2S(C)(=O)=O)C1 (stereo not drawn) and print it.
OUT: -143

IN: Retrieve cytotoxicity at 10 µM measured for Cc1cc(Br)ccc1C(=O)N(C)CCNS(C)(=O)=O and print it.
OUT: -54.1

IN: Retrieve cytotoxicity at 10 µM measured for COCCN(CC1CCCN(C2Cc3ccccc3C2)C1)C(=O)COC (stereo not drawn) and print it.
OUT: -5.98

IN: Retrieve cytotoxicity at 10 µM measured for CN(C)CC1CCCCN1C(=O)c1ccc(N2CCOCC2)cc1 (stereo not drawn) and print it.
OUT: -0.0679

IN: Retrieve cytotoxicity at 10 µM measured for O=C1NCC(C(=O)Nc2ncc(Cc3ccccc3)s2)N1 (stereo not drawn) and print it.
OUT: 5.92

IN: Retrieve cytotoxicity at 10 µM measured for O=C(NCC1(O)COCCN(Cc2ccc(O)cc2)C1)c1cnccn1 (stereo not drawn) and print it.
OUT: -12.8

IN: Retrieve cytotoxicity at 10 µM measured for CS(=O)(=O)N1CCC(O)(Cn2c(C3CC3)nc3ccccc3c2=O)CC1 and print it.
OUT: 3.06

IN: Retrieve cytotoxicity at 10 µM measured for CCCNC(=O)NC(C)c1ccccn1 (stereo not drawn) and print it.
OUT: -8.26

IN: Retrieve cytotoxicity at 10 µM measured for O=C(CCc1ccc2c(c1)OCO2)N1CCCC(n2cccn2)C1 (stereo not drawn) and print it.
OUT: -15.8

IN: Retrieve cytotoxicity at 10 µM measured for Cc1cc(C)n2c(CCCNS(=O)(=O)c3cccs3)nnc2n1 and print it.
OUT: 1.57

IN: Retrieve cytotoxicity at 10 µM measured for Cc1ccc(CN2CCC3(CC(C(=O)NC4CCC4)=NO3)C2)o1 (stereo not drawn) and print it.
OUT: -97.5

IN: Retrieve cytotoxicity at 10 µM measured for COc1ccc(C(C)NC(=O)Nc2nnc(C)s2)cc1OC (stereo not drawn) and print it.
OUT: 9.67

====

# cytotoxicity at 10 µM values compiled below
- TEST PROTOCOL: Toxicity liver stage against HepG2, at 10uM
- Type: cell-based
- Design: test concentration 10 uM, cell line HepG2-A16-CD81EGFP
- CONDITIONS: human, HepG2-A16-CD81EGFP cells; read-out: INHIBITION
I only need the number, in %, no unit after it.

c1ccc(C(Cn2cccn2)Nc2cnccn2)cc1 (stereo unspecified); 2.99
CC(C(=O)NC1(C#N)CCCCC1)N1CCc2c(ncn2C)C1 (stereo unspecified); 7.04
CCCn1ncc(CN(Cc2cccnc2)Cc2ccsc2)c1C; 13.1

IN: Retrieve cytotoxicity at 10 µM measured for COc1ccccc1[C@@H]1CN(CC2CCC2)C[C@H]1C(=O)O and print it.
OUT: -1.02

IN: Retrieve cytotoxicity at 10 µM measured for O=C(c1ccc(Sc2ccccn2)cc1)N1CCCSCC1 and print it.
OUT: 11.5

IN: Retrieve cytotoxicity at 10 µM measured for CCN1CCN(C2CCN(Cc3c(C)noc3C)CC2)C1=O and print it.
OUT: -7.85

====

- TEST PROTOCOL: Toxicity liver stage against HepG2, at 10uM
- Assay type: cell-based
- Design: test concentration 10 uM, cell line HepG2-A16-CD81EGFP
- CONDITIONS: human, HepG2-A16-CD81EGFP cells; read-out: INHIBITION
OUTCOME MEASURE: cytotoxicity at 10 µM (%)
I only need the number, in %, no unit after it.

IN: Retrieve cytotoxicity at 10 µM measured for CCCNS(=O)(=O)c1cnccc1N1CCN(C(C)C)CC1 and print it.
OUT: -1.32

IN: Retrieve cytotoxicity at 10 µM measured for N#Cc1cc(NC(=O)c2ccccc2)ccc1N1CCC(O)CC1 and print it.
OUT: -9.55

IN: Retrieve cytotoxicity at 10 µM measured for CCC(C)(C)C1CCCN1C(=O)c1coc(S(=O)(=O)NC)c1 (stereo unspecified) and print it.
OUT: -13.5

IN: Retrieve cytotoxicity at 10 µM measured for Cc1cnn(CC(=O)N2CCCN(Cc3cnn(C(C)C)c3)CC2)c1 and print it.
OUT: -12.3

IN: Retrieve cytotoxicity at 10 µM measured for O=C(c1ccnnc1)N1C[C@@H]2CC[C@H](Oc3cccc(F)c3)[C@@H]2C1 and print it.
OUT: 2.37

IN: Retrieve cytotoxicity at 10 µM measured for O=C(c1cnccn1)N1CCC(Cc2cnc3[nH]ccc3c2)CC1 and print it.
OUT: -18.6

====

# cytotoxicity at 10 µM values compiled below
- TEST PROTOCOL: Toxicity liver stage against HepG2, at 10uM
- Format: cell-based
- Parameters: test concentration 10 uM, cell line HepG2-A16-CD81EGFP
- CONDITIONS: human, HepG2-A16-CD81EGFP cells; read-out: INHIBITION
I only need the number, in %, no unit after it.

Recorded results for 3 compounds are shown here.
CN(C)CCNC(=O)[C@H]1C[C@H]2CN(c3ncccn3)C[C@H]2N1C; 9.52
CO[C@H]1COCCN(C(=O)c2ccc(C(F)(F)F)cc2)C1; 4.94
CC(C)c1noc(-c2ccc(-n3cnc(C(=O)O)c3)nc2)n1; -2.06

IN: Retrieve cytotoxicity at 10 µM measured for CC(=O)NCCC(=O)NC(C)c1sc(-c2ccccc2F)nc1C (centres undefined) and print it.
OUT: 7.92

IN: Retrieve cytotoxicity at 10 µM measured for Cc1ccc(NC2CCN(C(=O)c3cc(C)sc3C)CC2)nn1 and print it.
OUT: -5.59

====

# cytotoxicity at 10 µM values compiled below
- TEST PROTOCOL: Toxicity liver stage against HepG2, at 10uM
- Assay type: cell-based
- Design: test concentration 10 uM, cell line HepG2-A16-CD81EGFP
- CONDITIONS: human, HepG2-A16-CD81EGFP cells; read-out: INHIBITION
I only need the number, in %, no unit after it.

Recorded results for 5 compounds are shown here.
CN(CC1CC1)C(=O)CN1CCCC1c1cnn(C)c1 (stereo not drawn); 2.01
O=C1COC2(CCN(S(=O)(=O)C3CC3)CC2)CN1c1cccnc1; -1.69
O=C1CCc2cc(NC(=O)C3CCCN3c3nccs3)ccc2N1 (stereo not drawn); -10.8
COC(=O)NCC(=O)NCC1(c2c(F)cccc2F)CCCC1; -3.56
CCc1ccsc1C(=O)N1CCCN(Cc2cscn2)CC1; -4.77

IN: Retrieve cytotoxicity at 10 µM measured for Cc1ccccc1C(=O)N1CCC2(CCCN2CCN(C)C)CC1 and print it.
OUT: 3.56

IN: Retrieve cytotoxicity at 10 µM measured for CCOc1ccnc(N2CCN(C(=O)CCc3ccsc3)CC2)n1 and print it.
OUT: 8.15

IN: Retrieve cytotoxicity at 10 µM measured for COc1ccc(C(CNC(=O)NCc2csc(C)n2)N(C)C)cc1 (stereo not drawn) and print it.
OUT: -5.59

IN: Retrieve cytotoxicity at 10 µM measured for CN(Cc1cccc(Cl)c1)Cc1nnsc1Cl and print it.
OUT: 6.78

IN: Retrieve cytotoxicity at 10 µM measured for Fc1cnc(N2CC[C@@H]3O[C@@H](COCc4ccccn4)CC[C@@H]32)nc1 and print it.
OUT: 1.9

IN: Retrieve cytotoxicity at 10 µM measured for O=C(c1ccco1)N1CCCn2cnc(COCC3CC3)c2C1 and print it.
OUT: -75.9

IN: Retrieve cytotoxicity at 10 µM measured for Cc1cncc(C(=O)N2CCO[C@H]3[C@H](OCCN(C)C)CC[C@@H]32)c1 and print it.
OUT: 8.07

IN: Retrieve cytotoxicity at 10 µM measured for COCCNC(=O)c1cc(-c2ccc3c(c2)CCO3)n[nH]1 and print it.
OUT: 0.843
